Assay: Brain uptake testing (PK): plasma and brain levels by LC/MS/MS
Set-up: species or system mice
Details: mouse, in vivo, sc, 10 mg/kg
OUTCOME_MEASURE: Kp

[[record]]
molecule = "C=CCc1ccc(O)c(-c2ccc(O)c(CC=C)c2)c1 [Honokiol]"
value_measured = "~1"


Read the next record carefully.
Incoming: Need Kp, item CCN(CC)C(=S)SSC(=S)N(CC)CC [Disulfiram]
Outgoing: < 0.1
